The values you see were collected from paper PMC6222614.

Test system: CCRF-CEM
Experiment: Antiproliferative assay (MTT)
Format: cell-based, human
Conditions: concentration reducing cell proliferation by 50%, 96 h, mean of three determinations
Protocol: Cell lines derived from human hematological tumors were: CD4+ human T-cells containing an integrated HTLV-1 genome (MT-4); CD4+ human acute T-lymphoblastic leukemia (CCRF-CEM); human splenic B-lymphoblastoid cells (WIL-2NS); human acute B-lymphoblastic leukemia (CCRF-SB). […] Cell lines derived from human solid tumors were: Skin melanoma (SK-MEL-28); prostate carcinoma (DU-145). […] Cell viability was determined after 96 h at 37 °C by the MTT method.
Measurement Label: CC50 (µM)

# Mol, Val
records = [
    ("Cc1ccc(Cl)cc1NC(=S)Nc1ccc(Cl)c([N+](=O)[O-])c1", 9.4),
    ("O=[N+]([O-])c1cc(NC(=S)Nc2ccc(I)cc2)ccc1Cl", 6),
    ("O=[N+]([O-])c1cc(NC(=S)Nc2ccc(F)c(Cl)c2)ccc1Cl", 5),
    ("O=[N+]([O-])c1cc(NC(=S)Nc2ccc(F)cc2)ccc1Cl", 9.1),
    ("Cc1ccc(NC(=S)Nc2ccc(Cl)c([N+](=O)[O-])c2)cc1Cl", 4),
]

---

Item-by-item account of CC50
tested on: DU145; experiment: Antiproliferative assay (MTT); assay type: cell-based, human; conditions: prostate carcinoma, concentration reducing cell proliferation by 50%, 96 h

# Compound, CC50 [µM]
records = [
    ("O=[N+]([O-])c1cc(NC(=S)Nc2ccccc2Br)ccc1Cl", 8),
    ("O=[N+]([O-])c1cc(NC(=S)Nc2ccccc2Cl)ccc1Cl", 7.6),
    ("O=[N+]([O-])c1cc(NC(=S)Nc2ccc(F)cc2)ccc1Cl", 8.4),
    ("Cc1ccc(Cl)cc1NC(=S)Nc1ccc(Cl)c([N+](=O)[O-])c1", 7.8),
    ("O=[N+]([O-])c1cc(NC(=S)Nc2ccc(I)cc2)ccc1Cl", 11),
    ("CC[C@@]1(O)C(=O)OCc2c1cc1n(c2=O)Cc2cc3ccccc3nc2-1 [Camptotecin, reference compound]", 0.08),
    ("Cc1ccc(NC(=S)Nc2ccc(Cl)c([N+](=O)[O-])c2)cc1Cl", 7),
    ("O=[N+]([O-])c1cc(NC(=S)Nc2ccc(Cl)c(Cl)c2)ccc1Cl", 6),
    ("O=[N+]([O-])c1cc(NC(=S)Nc2ccc(F)c(Cl)c2)ccc1Cl", 6.5),
    ("O=[N+]([O-])c1cc(NC(=S)Nc2ccc(Br)cc2)ccc1Cl", 6),
    ("N#Cc1ccc(NC(=S)Nc2ccc(Cl)c([N+](=O)[O-])c2)cc1", 8),
]

---

Item-by-item account of MIC
tested on: S. aureus ATCC 6538; test: MIC, twofold serial microdilution; format: cell-based; conditions: Staphylococcus aureus, ATCC6538; standard strain, 18 h, 35 °C

# Compound, MIC (µg/mL)
records = [
    ("O=[N+]([O-])c1cc(NC(=S)NC2CC3CCC2C3)ccc1Cl (stereo not drawn)", 8),
    ("O=[N+]([O-])c1cc(NC(=S)NCc2ccco2)ccc1Cl", 16),
    ("Cc1ccc(NC(=S)Nc2ccc(Cl)c([N+](=O)[O-])c2)cc1", 4),
    ("CSCCCNC(=S)Nc1ccc(Cl)c([N+](=O)[O-])c1", 16),
    ("O=C(O)c1cn(C2CC2)c2cc(N3CCNCC3)c(F)cc2c1=O [Ciprofloxacin, reference compound]", 0.25),
    ("C=C(C)CNC(=S)Nc1ccc(Cl)c([N+](=O)[O-])c1", 16),
    ("C=CCNC(=S)Nc1ccc(Cl)c([N+](=O)[O-])c1", 32),
    ("O=[N+]([O-])c1cc(NC(=S)Nc2ccccc2)ccc1Cl", 16),
    ("CCCCc1ccc(NC(=S)Nc2ccc(Cl)c([N+](=O)[O-])c2)c(C)c1", 2),
]

---

test system: S. epidermidis MRSE 407/11; assay: MIC, hospital methicillin-resistant strain; type: cell-based; settings: Staphylococcus epidermidis

# Molecule, MIC (µg/mL)
data = [
    ("O=[N+]([O-])c1cc(NC(=S)Nc2ccccc2)ccc1Cl", 16),
    ("C=C(C)CNC(=S)Nc1ccc(Cl)c([N+](=O)[O-])c1", 32),
    ("CSCCCNC(=S)Nc1ccc(Cl)c([N+](=O)[O-])c1", 32),
    ("O=C(O)c1cn(C2CC2)c2cc(N3CCNCC3)c(F)cc2c1=O [Ciprofloxacin, reference compound]", 64),
    ("O=[N+]([O-])c1cc(NC(=S)NC2CC3CCC2C3)ccc1Cl (stereo not drawn)", 4),
    ("C=CCNC(=S)Nc1ccc(Cl)c([N+](=O)[O-])c1", 64),
    ("Cc1ccc(NC(=S)Nc2ccc(Cl)c([N+](=O)[O-])c2)cc1", 16),
    ("O=[N+]([O-])c1cc(NC(=S)NCc2ccco2)ccc1Cl", 32),
    ("CCCCc1ccc(NC(=S)Nc2ccc(Cl)c([N+](=O)[O-])c2)c(C)c1", 4),
]

---

system: CCRF-SB; assay: Antiproliferative assay (MTT); format: cell-based, human; conditions: concentration reducing cell proliferation by 50%, 96 h, mean of three determinations
// map CC50 onto a label; ranges low end = under 8 µM, middle = from 8 µM up to 9 µM, high end = 9 µM and over

# Compound, Assigned Label
measured = [
    ("O=[N+]([O-])c1cc(NC(=S)Nc2ccc(F)cc2)ccc1Cl", "high end"),
    ("O=[N+]([O-])c1cc(NC(=S)Nc2ccccc2Br)ccc1Cl", "high end"),
    ("O=[N+]([O-])c1cc(NC(=S)Nc2ccc(Cl)c(Cl)c2)ccc1Cl", "middle"),
    ("Cc1ccc(NC(=S)Nc2ccc(Cl)c([N+](=O)[O-])c2)cc1Cl", "low end"),
    ("CC[C@@]1(O)C(=O)OCc2c1cc1n(c2=O)Cc2cc3ccccc3nc2-1 [Camptotecin, reference compound]", "low end"),
    ("O=[N+]([O-])c1cc(NC(=S)Nc2ccc(I)cc2)ccc1Cl", "middle"),
    ("Cc1ccc(Cl)cc1NC(=S)Nc1ccc(Cl)c([N+](=O)[O-])c1", "high end"),
    ("O=[N+]([O-])c1cc(NC(=S)Nc2ccccc2Cl)ccc1Cl", "high end"),
]

---

Tested on: HIV-1 IIIB
Assay: Anti-HIV-1 activity: protection of MT-4 cells from virus-induced cytopathogenicity (MTT)
Assay type: cell-based, Human Immunodeficiency Virus type-1
Conditions: 50% protection of MT-4 cells from HIV-1 induced cytopathogenicity, MTT, 4-day incubation; read-out: HIV-1IIIB EC50
Experimental: Cell line supporting the multiplication of Human Immunodeficiency Virus type-1 (HIV-1) was the CD4+ human T-cells, derived from human hematological tumors, containing an integrated HTLV-1 genome (MT-4). […] The activity of compounds against HIV-1 was based on inhibition of virus-induced cytopathogenicity in MT-4 cell acutely infected with a multiplicity of infection (m.o.i.) of 0.01. […] After a 4-day incubation at 37 °C, cell viability was determined by the MTT method.

# Mol, EC50
records = [
    ("O=[N+]([O-])c1cc(NC(=S)Nc2cccc(Cl)c2)ccc1Cl", "> 7 µM"),
    ("Cc1ccc(NC(=S)Nc2ccc(Cl)c([N+](=O)[O-])c2)cc1Cl", "> 8 µM"),
    ("O=[N+]([O-])c1cc(NC(=S)Nc2ccccc2F)ccc1Cl", "> 13 µM"),
    ("O=[N+]([O-])c1cc(NC(=S)Nc2ccc(F)c(Cl)c2)ccc1Cl", "> 7.3 µM"),
    ("O=[N+]([O-])c1cc(NC(=S)Nc2ccc(Br)cc2)ccc1Cl", "> 6.6 µM"),
    ("O=[N+]([O-])c1cc(NC(=S)Nc2ccccc2Cl)ccc1Cl", "> 8.8 µM"),
    ("O=[N+]([O-])c1cc(NC(=S)Nc2ccc(F)cc2)ccc1Cl", "> 7 µM"),
    ("Cc1ccc(Cl)cc1NC(=S)Nc1ccc(Cl)c([N+](=O)[O-])c1", "> 8.2 µM"),
    ("O=[N+]([O-])c1cc(NC(=S)Nc2ccc(Cl)cc2)ccc1Cl", "> 7 µM"),
]

---

system: S. epidermidis MRSE 403/11; assay: MIC, hospital methicillin-resistant strain; assay type: cell-based; settings: Staphylococcus epidermidis

# Compound, Target Desc, MIC [µg/mL]
records = [
    ("CCCCc1ccc(NC(=S)Nc2ccc(Cl)c([N+](=O)[O-])c2)c(C)c1", "S. epidermidis MRSE 403/11", 4),
    ("O=[N+]([O-])c1cc(NC(=S)NC2CC3CCC2C3)ccc1Cl (stereo not drawn)", "S. epidermidis MRSE 403/11", 4),
    ("C=CCNC(=S)Nc1ccc(Cl)c([N+](=O)[O-])c1", "S. epidermidis MRSE 403/11", 64),
    ("CSCCCNC(=S)Nc1ccc(Cl)c([N+](=O)[O-])c1", "S. epidermidis MRSE 403/11", 32),
    ("C=C(C)CNC(=S)Nc1ccc(Cl)c([N+](=O)[O-])c1", "S. epidermidis MRSE 403/11", 32),
    ("O=[N+]([O-])c1cc(NC(=S)Nc2ccccc2)ccc1Cl", "S. epidermidis MRSE 403/11", 16),
    ("O=[N+]([O-])c1cc(NC(=S)NCc2ccco2)ccc1Cl", "S. epidermidis MRSE 403/11", 32),
    ("O=C(O)c1cn(C2CC2)c2cc(N3CCNCC3)c(F)cc2c1=O [Ciprofloxacin, reference compound]", "S. epidermidis MRSE 403/11", 16),
    ("Cc1ccc(NC(=S)Nc2ccc(Cl)c([N+](=O)[O-])c2)cc1", "S. epidermidis MRSE 403/11", 16),
]
